Data provenance: paper PMC7053198

- System: A375Pβ6 cells
- condition.details: A375Pβ6, αvβ6 positive; 72 h treatment, MTT assay; ±SD, n=3
measured.property: pIC50
One number for each entry, as −log10 of the molar value.

Sure, the documented pIC50 for COc1cc2c(cc1OCCCCCOc1cc3c(cc1OC)C(=O)N1C=C(C)C[C@H]1C=N3)N=C[C@@H]1CC(C)=CN1C2=O [SG3199, reference compound] is 9.96
